- Test system: spheroids^MARY-X
- test summary: Spheroids^MARY-X drug screen: bright-field image analysis of spheroid dissolution (dissolution indices)
- Type: cell-based, human
- settings: Homo sapiens; read-out: IC50 from dissolution indices
observable: pIC50
Give bare numbers, as −log10 of the molar value.

Enquiry: Would you kindly share the measured pIC50 for CC(C)=CCC[C@]1(C)C=Cc2c(O)c3c(c(CC=C(C)C)c2O1)O[C@]12C(=C[C@@H]4C[C@H]1C(C)(C)O[C@@]2(C/C=C(/C)C(=O)O)C4=O)C3=O [Gambogic acid] ?
Return: 6.27

###

- Tested on: spheroids^MARY-X
- test summary: Spheroids^MARY-X drug screen: bright-field image analysis of spheroid dissolution (dissolution indices)
- Format: cell-based, human
- settings: Homo sapiens, as printed in b33 for gambogic acid; read-out: IC50, spheroidal dissolution and apoptosis
observable: IC50 (nM)
Numbers only, in nM.

Enquiry: Given the entry CC(C)=CCC[C@]1(C)C=Cc2c(O)c3c(c(CC=C(C)C)c2O1)O[C@]12C(=C[C@@H]4C[C@H]1C(C)(C)O[C@@]2(C/C=C(/C)C(=O)O)C4=O)C3=O [Gambogic acid] , what IC50 was observed with spheroids^MARY-X?
Return: 540
